meta.source: paper PMC10407959

testedOn: 5-HT5A (Homo sapiens, UniProt P47898)
Sequence (P47898 whole entry, species assumed): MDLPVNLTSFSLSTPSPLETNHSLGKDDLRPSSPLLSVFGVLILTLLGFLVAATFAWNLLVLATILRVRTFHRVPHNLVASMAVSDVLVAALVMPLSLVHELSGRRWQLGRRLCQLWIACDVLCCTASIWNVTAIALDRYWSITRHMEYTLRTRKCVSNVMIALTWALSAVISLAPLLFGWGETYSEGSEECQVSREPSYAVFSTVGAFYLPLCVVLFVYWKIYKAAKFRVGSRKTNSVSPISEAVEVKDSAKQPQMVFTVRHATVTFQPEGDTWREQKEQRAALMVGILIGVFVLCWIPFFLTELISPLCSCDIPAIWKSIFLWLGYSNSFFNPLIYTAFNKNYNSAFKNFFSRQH
testProtocol: PDSP off-target radioligand binding
valueKind: Ki

compound | testedOn | Ki
O=C(O)c1cc(-c2ccc(C3(O)C[C@H]4CNC[C@@H]4C3)cc2)c2ccc(-c3ccc(C(F)(F)F)cc3)cc2c1 (racemic) | 5-HT5A (Homo sapiens, UniProt P47898) | 2.4 µM

In the following, a different compound is considered.
Record request: Ki value, item O=C(O)c1cc(-c2ccc(C3CCCNCC3)cc2)c2ccc(-c3ccc(C(F)(F)F)cc3)cc2c1 (centres unmarked)
4.8 µM

###

testedOn: hP2Y14R (Homo sapiens, UniProt Q15391)
Sequence (Q15391 1-338): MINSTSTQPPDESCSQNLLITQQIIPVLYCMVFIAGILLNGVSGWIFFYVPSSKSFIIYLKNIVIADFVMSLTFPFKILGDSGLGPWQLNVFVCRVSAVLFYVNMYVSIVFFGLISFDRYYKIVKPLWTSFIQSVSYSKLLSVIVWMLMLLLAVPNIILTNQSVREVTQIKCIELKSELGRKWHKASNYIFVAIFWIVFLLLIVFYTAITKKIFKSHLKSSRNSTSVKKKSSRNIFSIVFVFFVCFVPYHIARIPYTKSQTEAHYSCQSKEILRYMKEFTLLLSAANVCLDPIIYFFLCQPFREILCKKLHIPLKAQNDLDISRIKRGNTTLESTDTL
testProtocol: cell-based
valueKind: Ki (nM)
Give bare numbers, in nM.

Value lookup for Ki; key = O=C(O)c1cc(-c2ccc([C@H]3C[C@H]4C[C@@H]3CN4)cc2)c2ccc(-c3ccc(C(F)(F)F)cc3)cc2c1 [2b]
1.81
